The reported measurements were obtained from paper PMC10683472.

Raw reads for assorted sequences
# tested.target: TLR10 (Homo sapiens, UniProt Q9BXR5)
# Sequence (Q9BXR5 20-576): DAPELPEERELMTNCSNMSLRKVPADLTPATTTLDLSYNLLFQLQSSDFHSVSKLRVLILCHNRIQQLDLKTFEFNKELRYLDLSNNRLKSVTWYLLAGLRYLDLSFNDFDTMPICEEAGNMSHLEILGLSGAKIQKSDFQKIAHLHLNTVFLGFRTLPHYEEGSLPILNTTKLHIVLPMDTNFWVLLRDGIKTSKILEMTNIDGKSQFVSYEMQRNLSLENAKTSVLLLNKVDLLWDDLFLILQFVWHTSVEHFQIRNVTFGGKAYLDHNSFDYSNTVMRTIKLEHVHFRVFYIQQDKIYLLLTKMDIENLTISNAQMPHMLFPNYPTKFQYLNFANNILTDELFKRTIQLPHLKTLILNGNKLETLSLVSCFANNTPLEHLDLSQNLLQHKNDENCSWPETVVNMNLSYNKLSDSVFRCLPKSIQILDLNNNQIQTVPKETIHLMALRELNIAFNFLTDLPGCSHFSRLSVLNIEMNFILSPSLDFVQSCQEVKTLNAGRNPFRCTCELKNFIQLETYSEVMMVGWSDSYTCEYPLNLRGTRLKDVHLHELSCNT
# assay.procedure: mRNA display affinity selection against TLR10, NGS abundance
# Assay type: binding
# Design: Chimera protein (extracellular domain, amino acid 20-576;); Fc (chimera); purchased R&D system #6619-TR-050
# details: TLR10 selection pulldown (+); Top100 selection hits, NGS
Please state the value as a number alone, without comment.

Please review the following examples before continuing.
{"residues": "CLGISNRIVVV", "reading": 17}
{"residues": "SNSNRYGGLITS", "reading": 4431}
{"residues": "STLFFMFQGIRG", "reading": 19}
{"residues": "STKNQYGGWSPA", "reading": 33}

### Prompt Give recorded Raw reads. SLETNSVVWI
### Response 20

### Prompt Give recorded Raw reads. SIVFHLTNKMAF
### Response 391

### Prompt Give recorded Raw reads. SLEFPHLVIH
### Response 27

### Prompt Give recorded Raw reads. STHIYSKQGIRG
### Response 409

### Prompt Give recorded Raw reads. TMQFPLQRRMAI
### Response 456

### Prompt Give recorded Raw reads. SMCVWARQKIVG
### Response 69

### Prompt Give recorded Raw reads. GLVINKRWYVHL
### Response 57

### Prompt Give recorded Raw reads. TILFSLQNVRAF
### Response 134

###

# tested.target: TLR10 (Homo sapiens)
# Sequence (Q9BXR5 20-576): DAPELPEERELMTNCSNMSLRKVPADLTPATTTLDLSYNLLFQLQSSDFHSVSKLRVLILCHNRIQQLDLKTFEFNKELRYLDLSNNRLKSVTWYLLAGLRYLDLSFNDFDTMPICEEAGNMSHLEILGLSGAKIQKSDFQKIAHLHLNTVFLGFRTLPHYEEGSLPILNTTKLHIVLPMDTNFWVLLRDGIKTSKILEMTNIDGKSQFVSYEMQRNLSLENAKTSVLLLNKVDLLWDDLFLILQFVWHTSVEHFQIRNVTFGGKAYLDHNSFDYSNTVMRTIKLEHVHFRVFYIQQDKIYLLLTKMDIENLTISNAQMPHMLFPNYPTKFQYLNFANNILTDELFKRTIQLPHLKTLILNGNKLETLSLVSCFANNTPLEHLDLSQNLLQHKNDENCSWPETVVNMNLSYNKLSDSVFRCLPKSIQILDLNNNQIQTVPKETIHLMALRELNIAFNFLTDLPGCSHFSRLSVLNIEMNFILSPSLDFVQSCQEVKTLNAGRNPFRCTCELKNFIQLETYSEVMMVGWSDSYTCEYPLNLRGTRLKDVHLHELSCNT
# assay.procedure: mRNA display affinity selection against TLR10, NGS abundance
# Type: binding
# Design: Chimera protein (extracellular domain, amino acid 20-576;); Fc (chimera); purchased R&D system #6619-TR-050
# details: TLR10 selection pulldown (+); Top100 selection hits, NGS
# note: boundary value 0.0002 maps to False; Library fraction below it maps to True

{"residues": "TYWKACAMSHIP", "group": "False"}
{"residues": "STIVFKHQQISG", "group": "True"}
{"residues": "AVRNKYGGNAAS", "group": "False"}
{"residues": "CVLVNNRYLVH", "group": "False"}
{"residues": "SIKFVFQGKLAI", "group": "False"}

### Prompt Below 0.0002 on Library fraction? Entry CLPFPLQMRIAY
### Response False

### Prompt Below 0.0002 on Library fraction? Entry IGLVRIKSS
### Response False

### Prompt Below 0.0002 on Library fraction? Entry TIKFPRLQMLAI
### Response False

### Prompt Below 0.0002 on Library fraction? Entry GVRLNGVIFVSV
### Response False

### Prompt Below 0.0002 on Library fraction? Entry AINFELTNKIAF
### Response False
